Biological target: Fibroblast growth factor 10 (Homo sapiens) (UniProt O15520)
Sequence (O15520 whole entry, looked up): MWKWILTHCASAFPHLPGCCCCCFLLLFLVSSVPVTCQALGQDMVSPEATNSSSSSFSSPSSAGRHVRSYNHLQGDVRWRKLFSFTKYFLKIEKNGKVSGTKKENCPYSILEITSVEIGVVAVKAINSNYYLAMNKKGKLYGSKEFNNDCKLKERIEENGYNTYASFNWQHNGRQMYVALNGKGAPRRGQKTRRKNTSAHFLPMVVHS
Experiment: FGF10 binders on small-molecule microarrays, primary screen, biochemical, small-molecule microarray, 635 nm fluorescence (AID 1102)
Settings: FGF10 binding, fluorescence 635 nm, higher = more signal
Test Readout: composite z-score
Simply state the number, no unit and no words.

composite z-score for Fibroblast growth factor 10 (Homo sapiens) (UniProt O15520) with input CON=Cc1ccc(C(=O)N2[C@H](c3ccc(C)cc3)[C@@H](C)CC[C@H]2C(=O)OC)cc1 equals 0.52

composite z-score for Fibroblast growth factor 10 (Homo sapiens) (UniProt O15520) with input COC(=O)CC=C[C@@H](C)[C@@H](C=NO[C@H](C)c1cn([C@@H]2COC[C@H]2O)nn1)NS(=O)(=O)c1ccc(C)cc1 equals 0.43

composite z-score for Fibroblast growth factor 10 (Homo sapiens) (UniProt O15520) with input COc1ccc(COC(=O)NN=C2C[C@@H](O)[C@@H](O)[C@@H]3[C@@H]4C(=O)N(Cc5ccccc5)C(=O)[C@@H]4CC[C@H]23)cc1 equals -0.259

composite z-score for Fibroblast growth factor 10 (Homo sapiens) (UniProt O15520) with input CCO[C@H](c1cc(OC)cc([N+](=O)[O-])c1OC)[C@H](C)C=CCC(=O)OC equals 0.0681

composite z-score for Fibroblast growth factor 10 (Homo sapiens) (UniProt O15520) with input COc1ccc(COC(=O)NN=C2C[C@@H](O)[C@@H](O)[C@@H]3[C@@H]4C(=O)N(C5CCCCC5)C(=O)[C@@H]4CC[C@H]23)cc1 equals -0.485

composite z-score for Fibroblast growth factor 10 (Homo sapiens) (UniProt O15520) with input C=CC[C@@H]1C=C[C@H](ON=C(C)CCC(=O)OC[C@H]2O[C@H](C#Cc3ccccc3)C=C[C@@H]2Oc2ccc(C)cc2)[C@@H](CO)O1 equals 1.16

composite z-score for Fibroblast growth factor 10 (Homo sapiens) (UniProt O15520) with input Cc1ccc(S(=O)(=O)NC(CCc2ccccc2)CC(=O)C(C)(C)C)cc1 (configuration not stated) equals 0.465

composite z-score for Fibroblast growth factor 10 (Homo sapiens) (UniProt O15520) with input COC(=O)CC=C[C@@H](C)[C@@H](C=NO[C@@H](C)c1cc(-c2c(C)cc(C)cc2C)no1)NS(=O)(=O)c1ccc(C)cc1 equals -1.93

composite z-score for Fibroblast growth factor 10 (Homo sapiens) (UniProt O15520) with input COC(=O)[C@H](C)NC(=O)CCC1CC(OC(=O)NCCc2ccc(F)cc2)CC2(CCCC(COC(=O)NCc3cccc(C(F)(F)F)c3)O2)O1 (some centres not stated) equals 0.951

composite z-score for Fibroblast growth factor 10 (Homo sapiens) (UniProt O15520) with input COC(=O)[C@@H]1CC[C@H](C)[C@@H](c2ccc(C)cc2)N1C(=O)c1ccc(C=NOC[C@@H](C)[C@H](OCc2ccccc2)C(C)C)cc1 equals 0.532

composite z-score for Fibroblast growth factor 10 (Homo sapiens) (UniProt O15520) with input CCOC(=O)[C@H](CC(C)C)NC(=O)CCC1CC(OC(=O)NCc2cccc3ccccc23)CC2(CCCC(COC(=O)NCCc3ccc(Cl)cc3)O2)O1 (some centres not stated) equals 0.365

composite z-score for Fibroblast growth factor 10 (Homo sapiens) (UniProt O15520) with input COC(=O)CC=C[C@@H](C)[C@@H](C=NOCC[C@@H]1C=C[C@H](OC(C)=O)[C@@H](COC(C)=O)O1)NS(=O)(=O)c1ccc(C)cc1 equals -0.183

composite z-score for Fibroblast growth factor 10 (Homo sapiens) (UniProt O15520) with input CCOC(=O)[C@H](CC(C)C)NC(=O)CCC1CC(OC(=O)NCc2cccc3ccccc23)CC2(CCCC(COC(=O)NCCOc3ccccc3)O2)O1 (some centres not stated) equals 0.658

composite z-score for Fibroblast growth factor 10 (Homo sapiens) (UniProt O15520) with input O=C(NN=C1C[C@@H](O)[C@@H](O)[C@@H]2[C@@H]3C(=O)N(C[C@@H]4CCCO4)C(=O)[C@@H]3CC[C@@H]12)OCc1ccccc1 equals 0.127

composite z-score for Fibroblast growth factor 10 (Homo sapiens) (UniProt O15520) with input O=C1CCCC=C1C(CCc1ccccc1)OC(=O)c1ccc(Br)cc1 (configuration not stated) equals 0.146

composite z-score for Fibroblast growth factor 10 (Homo sapiens) (UniProt O15520) with input O=c1n(Cc2cc3c(cc2Cl)OCO3)c(=O)n2n1CC[C@@H]1C(=NOCc3ccccc3)[C@H]3O[C@H]3[C@@H](O)[C@@H]12 equals 0.531

composite z-score for Fibroblast growth factor 10 (Homo sapiens) (UniProt O15520) with input COc1cccc([C@H]2Oc3ccc(OC)cc3C(=NOC(C)CN3CCCCc4nc(C)c(C)cc43)[C@@H]2O)c1 (some centres not stated) equals 0.422

----------
Provide the reported composite z-score of each item.
Tested on: Lefty1
Test: Lefty1 binders on small-molecule microarrays, primary screen, biochemical, small-molecule microarray, 635/667 nm fluorescence (AID 1139)
Settings: small-molecule microarray binding, fluorescence 635/667; higher = more signal

composite z-score reading for CCOC(=O)[C@H](CC(C)C)NC(=O)CCC1CC(OC(=O)NCc2cccc3ccccc23)CC2(CCCC(COC(=O)NCc3ccncc3)O2)O1 (stereo not given in full) : 1.01

composite z-score reading for O=C1CCCC=C1C(O)CCOC(c1ccccc1)(c1ccccc1)c1ccccc1 (stereo not given) : 0.458

composite z-score reading for COc1ccc(O[C@H]2C=C[C@@H](c3ccccc3)O[C@@H]2CON=CC[C@@H]2C=C[C@H](OC(C)=O)[C@@H](COC(C)=O)O2)cc1 : 0.257

composite z-score reading for CC(CCN1CCCCc2nc(C)c(C)cc21)=NO[C@@H](C)c1cn([C@H](CO)Cc2ccccc2)nn1 : 0.828

composite z-score reading for COC(=O)CC=C[C@@H](C)[C@@H](C=NO[C@@H]1O[C@H](COC(C)=O)[C@@H](OC(C)=O)[C@H](OC(C)=O)[C@H]1OC(C)=O)OC : -0.268

composite z-score reading for COC(=O)[C@@H]1CC[C@@H](C)[C@H](c2ccc(Br)cc2)N1 : -0.0352

composite z-score reading for C[C@@H](ON=C1[C@H]2CCn3c(=O)n(-c4ccccc4)c(=O)n3[C@H]2[C@H](O)[C@@H]2O[C@H]12)c1cn([C@@H]2COC[C@H]2O)nn1 : 0.691

composite z-score reading for C#CCCCON=C1C[C@@H](O)[C@@H](O)[C@@H]2[C@@H]3C(=O)N(c4ccc(F)cc4F)C(=O)[C@@H]3CC[C@@H]12 : 0.322

composite z-score reading for COC(=O)[C@H](C)NC(=O)CCC1CC(OC(=O)NCc2ccc3c(c2)OCO3)CC2(CCCC(COC(=O)NCC(c3ccccc3)c3ccccc3)O2)O1 (stereo not given in full) : 1.25

composite z-score reading for O=C1[C@H]2[C@H]3[C@H](O)[C@H](O)CC(=NO[C@@H]4O[C@H](CO)[C@@H](O)[C@H](O)[C@H]4O)[C@H]3CC[C@H]2C(=O)N1c1cccc(Oc2ccccc2)c1 : 0.802

composite z-score reading for CC=CC1=C(CO)C(=O)[C@@H]2O[C@@H]2C1=O : 1.34

composite z-score reading for CCN1C(=O)[C@H]2[C@H]3[C@H](O)[C@H](O)CC(=O)[C@H]3CC[C@H]2C1=O : 0.559

composite z-score reading for COC(=O)CC=C[C@@H](C)[C@@H](C=NOCC[C@@H]1C=C[C@H](OC(C)=O)[C@@H](COC(C)=O)O1)OC : 0.66

composite z-score reading for CCCCC#C[C@@H]1C=C[C@H](OC(C)=O)[C@@H](COC(C)=O)O1 : 0.487

composite z-score reading for O=C(NN=C1C[C@@H](O)[C@@H](O)[C@@H]2[C@@H]3C(=O)N(Cc4ccccc4)C(=O)[C@@H]3CC[C@@H]12)OCc1ccccc1 : 0.321

----------
Experiment: small-molecule microarray binders of probe aCHRDL2, primary screen, biochemical, biotinylated probe, 635/667 nm fluorescence (AID 1100)
Settings: higher = more signal
Test Readout: composite z-score
Simply state the number, no unit and no words.

composite z-score reading for COc1ccc(COC(=O)NN=C2C[C@@H](O)[C@@H](O)[C@@H]3[C@@H]4C(=O)N(c5cccc(Oc6ccccc6)c5)C(=O)[C@@H]4CC[C@@H]23)cc1 : 1.28

composite z-score reading for CCOC(=O)[C@H](CC(C)C)NC(=O)CCC1CC(OC(=O)NCc2cccc3ccccc23)CC2(CCCC(COC(=O)NCCOc3ccccc3)O2)O1 (some centres undefined) : -0.383

composite z-score reading for CCO[C@H](c1cc(OC)cc([N+](=O)[O-])c1OC)[C@H](C)C=CCC(=O)OC : -0.776

composite z-score reading for CC(C)C[C@H](NC(=O)CCC1CC(OC(=O)NCc2cccc3ccccc23)CC2(CCCC(COC(=O)NCc3ccccc3)O2)O1)C(=O)NCC(c1ccccc1)c1ccccc1 (some centres undefined) : -0.304
